Value source: PubChem BioAssay (NCI)

What growth was measured for each of the following?
System: PC-3 prostate
Assay: NCI-60 one-dose screen, 48 h (100 = growth as untreated, 0 = no growth, -100 = all killed)
Details: 10 µM unless noted
This is part of a sample that, as a whole, favours compounds with a hit. Of some 83,000 tested, about 20% had one in any assay.
Give bare numbers, in %.

compound: Cc1ccc(/C=C2/C(=O)Nc3cc(Cl)c(-c4csc(N)n4)cc32)cc1
measurement.target: PC-3 prostate
growth / %: 56.8
//
compound: Cc1ccc2c(C3C(C#N)=C(N)Oc4cc5ccccc5cc43)cc(=O)oc2c1 (stereo unspecified)
measurement.target: PC-3 prostate
growth / %: 18.8

I need growth for every entry listed below, if you could help.
1. O=C(Nc1cccc(-n2ccc3c(NC(=O)c4ccccc4)nccc32)c1)Nc1ccc(Cl)c(C(F)(F)F)c1
2. COc1ccc(/C=C2\CS(=O)(=O)C/C(=C\c3ccc(OC)cc3)C2=O)cc1
3. COc1ccc(/C=C/C(=O)c2ccc(NC(=O)CSc3nnc(-c4cc(OC)c(OC)c(OC)c4)o3)cc2)cc1
4. COc1ccccc1N1CCN(CCCOc2ccc(OCCCN3CCN(c4ccccc4OC)CC3)c(C(=O)c3cc(OC)c(OC)c(OC)c3)c2)CC1
5. COc1ccc(/C=C/C(=O)c2ccc(Oc3ncnc4ccccc34)cc2)cc1OC
6. COc1cc(NC(C)CCCN2C(=O)c3ccccc3C2=O)c2ncccc2c1OC (stereo unspecified)
7. CCOC(=O)C1CSC(C)(C(=O)OCC)N1 (stereo unspecified)

output:
[20.4, -33.5, -34.7, 95.9, 82.1, 71.3, 95.1]
